Listing of recorded koff by entry.
Biological target: T1, human programmed cell death protein 1 (hPD-1) C93S (aa 24-167) (Homo sapiens, UniProt Q15116, C93S)
T1 construct: made as a fusion with a TEV site and human Fc; the Fc was cut off with TEV protease; source: Expi293F, purified (Protein A, TEV cleavage of Fc, SEC; monomer fractions); not shown: Fc (human), C-terminal, cleaved
T1 sequence (Q15116 24-167 C93S): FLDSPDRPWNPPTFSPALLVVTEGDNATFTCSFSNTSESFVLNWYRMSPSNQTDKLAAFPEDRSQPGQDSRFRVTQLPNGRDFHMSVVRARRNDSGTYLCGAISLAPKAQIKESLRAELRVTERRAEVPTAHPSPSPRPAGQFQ
Experiment: SPR; Carterra LSA; Fab from the ammonium sulfate precipitate of the culture supernatant immobilised on a NiHC200M chip; hPD-1 (1-1024 nM) or mPD-1-Fc (4-1024 nM) as analyte, fourfold dilution series, no regeneration; HBS-EP pH 7.4, 25 °C; medians over the spots of a construct, KD = koff/kon
Conditions: one partner purified

{"binder": "toripalimab Fab L.G34A (Fab, V domains shown, as the heavy chain of Sm3; light chain of Sm3 with this change; numbers count from the chain's first residue; source: Brevibacillus, culture supernatant (ammonium sulfate precipitate); not shown: 6xHis, C-terminal, kept; 6xHN, C-terminal, kept) VH: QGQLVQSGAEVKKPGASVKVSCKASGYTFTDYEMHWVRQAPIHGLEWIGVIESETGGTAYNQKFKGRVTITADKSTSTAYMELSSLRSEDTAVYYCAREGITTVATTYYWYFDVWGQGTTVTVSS VL: DVVMTQSPLSLPVTLGQPASISCRSSQSIVHSNANTYLEWYLQKPGQSPQLLIYKVSNRFSGVPDRFSGSGSGTDFTLKISRVEAEDVGVYYCFQGSHVPLTFGQGTKLEIK", "sign": "=", "koff [s⁻¹]": "4.8e-05"}
{"binder": "toripalimab Fab L.V99I (Fab, V domains shown, as the heavy chain of Sm3; light chain of Sm3 with this change; numbers count from the chain's first residue; source: Brevibacillus, culture supernatant (ammonium sulfate precipitate); not shown: 6xHis, C-terminal, kept; 6xHN, C-terminal, kept) VH: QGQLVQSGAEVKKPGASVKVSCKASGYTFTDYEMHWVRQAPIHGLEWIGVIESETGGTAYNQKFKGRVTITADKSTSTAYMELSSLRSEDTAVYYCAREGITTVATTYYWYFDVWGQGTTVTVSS VL: DVVMTQSPLSLPVTLGQPASISCRSSQSIVHSNGNTYLEWYLQKPGQSPQLLIYKVSNRFSGVPDRFSGSGSGTDFTLKISRVEAEDVGVYYCFQGSHIPLTFGQGTKLEIK", "sign": "<", "koff [s⁻¹]": "1e-05"}
{"binder": "toripalimab Fab H.E54A (Fab, V domains shown, heavy chain of Sm3 with this change; numbers count from the chain's first residue; as the light chain of Sm3; source: Brevibacillus, culture supernatant (ammonium sulfate precipitate); not shown: 6xHis, C-terminal, kept; 6xHN, C-terminal, kept) VH: QGQLVQSGAEVKKPGASVKVSCKASGYTFTDYEMHWVRQAPIHGLEWIGVIESATGGTAYNQKFKGRVTITADKSTSTAYMELSSLRSEDTAVYYCAREGITTVATTYYWYFDVWGQGTTVTVSS VL: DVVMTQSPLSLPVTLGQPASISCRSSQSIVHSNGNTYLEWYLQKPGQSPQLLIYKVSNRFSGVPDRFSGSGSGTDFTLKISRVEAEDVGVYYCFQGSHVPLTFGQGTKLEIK", "sign": "=", "koff [s⁻¹]": "2.52e-05"}

Reference source: paper PMC10663500
